Data credit: ChEMBL document CHEMBL1201862

- Tested on: 786-0
- ASSAY_INFO: NCI tumour cell line growth inhibition, 48 h
Activity calls are given as the source filed them. Cut-off read from the data, not from the text of the source: active = GI50 up to about 1.1 µM and inactive = higher.
In this exercise, the only acceptable responses are 1 (yes) = active, 0 (no) = inactive

Inquiry: GET /call?item= CC(=O)c1cc2c(s1)C(=O)c1scc(C(C)=O)c1C2=O returns the recorded outcome of this test.
Reply text: 1 (yes)

Inquiry: GET /call?item= COc1ccc(NN=C2C(=O)CCC2=O)cc1 returns the recorded outcome of this test.
Reply text: 0 (no)

Inquiry: GET /call?item= CCOC(=O)c1ccc(NC(=O)O/N=C(/Cl)C(C)C)cc1 returns the recorded outcome of this test.
Reply text: 0 (no)

Inquiry: GET /call?item= NC(Cc1ccc2oc3cc(=O)c4ccccc4c-3nc2c1)C(=O)O (stereo not given) returns the recorded outcome of this test.
Reply text: 0 (no)

Inquiry: GET /call?item= O=C1/C(=C/c2ccc(F)cc2)CNC/C1=C\c1ccc(F)cc1 returns the recorded outcome of this test.
Reply text: 1 (yes)

Inquiry: GET /call?item= CCOC(=O)NC(Nc1ccc(C(=O)O)cc1)(C(F)(F)F)C(F)(F)F returns the recorded outcome of this test.
Reply text: 0 (no)

Inquiry: GET /call?item= O=CNc1ncn[nH]1 returns the recorded outcome of this test.
Reply text: 0 (no)

Inquiry: GET /call?item= O=C1OC(=O)C2=C1C(c1cccs1)C=C(c1cccnc1)N2c1ccncc1 (stereo not given) returns the recorded outcome of this test.
Reply text: 0 (no)

Inquiry: GET /call?item= CC(C)NC(=O)OCC[S+]([O-])c1c(Cl)c(Cl)nn1C (stereo not given) returns the recorded outcome of this test.
Reply text: 0 (no)

Inquiry: GET /call?item= C/C=C(\C)[C@@H](O)C(=O)O[C@@H]1CC(C(C)(C)O)[C@](C)(CCC(=O)OC)[C@H]2[C@H](OC(=O)[C@H](O)[C@H](C)CC)C[C@]3(C)C(=CC[C@H]3[C@H]3CO[C@H](C=C(C)C)C3)[C@]12C (stereo not given in full) returns the recorded outcome of this test.
Reply text: 0 (no)

Inquiry: GET /call?item= CCOc1cc(/C=C/C=C/c2ccc(N(C)C)cc2)[s+]c2ccccc12 returns the recorded outcome of this test.
Reply text: 0 (no)

Inquiry: GET /call?item= CCCCCCCCCCCCCCCCCC(=O)O[C@H](COC(=O)CCCCCCCCCCC)COC(=O)CCCCCCCCCCCCCCC returns the recorded outcome of this test.
Reply text: 0 (no)

Inquiry: GET /call?item= COc1cccc(/C=N/n2c(Cc3ccc(Cl)cc3)n[nH]c2=O)c1 returns the recorded outcome of this test.
Reply text: 0 (no)

Inquiry: GET /call?item= COc1ccc(NC(=O)CC(=O)N2N=C(N(c3ccccc3)c3ccccc3)CC2c2ccccc2)cc1 (stereo not given) returns the recorded outcome of this test.
Reply text: 0 (no)

Inquiry: GET /call?item= Nc1n[nH]c2nc3ccc(C(F)(F)F)cc3nc12 returns the recorded outcome of this test.
Reply text: 0 (no)

Inquiry: GET /call?item= COc1ccc(C2C3CCc4ccccc4C3=NN2S(=O)(=O)c2ccc(Cl)cc2)cc1 (stereo not given) returns the recorded outcome of this test.
Reply text: 0 (no)

Inquiry: GET /call?item= O=C(CC(=O)Nc1cccc(C(=O)O)c1)Nc1cccc(C(=O)O)c1 returns the recorded outcome of this test.
Reply text: 0 (no)

Inquiry: GET /call?item= COC(=O)C(C(=O)C(=O)Nc1ccc(OC)cc1[N+](=O)[O-])c1nc2cc(C)c(C)cc2nc1O (stereo not given) returns the recorded outcome of this test.
Reply text: 0 (no)

Inquiry: GET /call?item= CCC(C)(O)c1cnc(CC(C)C)c(=O)n1O (stereo not given) returns the recorded outcome of this test.
Reply text: 0 (no)

Inquiry: GET /call?item= COc1ccc2oc(S(=O)(=O)N3CC(CCl)c4ccc(N)cc43)cc2c1 (stereo not given) returns the recorded outcome of this test.
Reply text: 1 (yes)
